System: XIP peptide (Xip251-270)
measurement.protocol: small-molecule binders of XIP peptide, primary screen, biochemical, small-molecule microarray, fluorescence 635/667 nm, 0.5 µg/mL protein (AID 1183)
conditions: small-molecule microarray binding, fluorescence 635 nm; higher = more signal
Items are presented alongside their recorded composite z-score.
Answer with a bare number; do not write a unit.

For the compound shown here, COc1cccc([C@H](O)Cn2cc(-c3ccc(CON=C(C)C)cc3)nn2)c1 , give the reported composite z-score.
-0.851

And what about the compound CCc1cc2c(nc1CC)CCN(CCC(C)=NO[C@@H]1O[C@H](COC(C)=O)[C@@H](OC(C)=O)[C@H](OC(C)=O)[C@H]1OC(C)=O)C2 ?
0.719

Now this one: CC(CCN1CCc2nc(-c3ccccc3)c(-c3ccccc3)cc2C1)=NOC(C)CN1CCCc2nc(C)c(C)cc21 (centres undefined)
0.558

Also COC(=O)CC=C[C@@H](C)[C@@H](C=NOC[C@@H](O)COCc1ccco1)OC , if possible.
0.338

----------
measurement.protocol: PSAC antagonists in infected red cells, primary screen, cell-based, P. falciparum Indochina, OD700, 18 h (AID 1157)
conditions: P. falciparum Indochina infected erythrocytes, osmotic lysis OD700, 18 h; higher = more signal, called active from +8 up or from −8 down
Active and inactive are the calls of the source.
Measured z-score of individual entries

molecule	experimental.value
O=C1CCCC=C1C(O)C1CCCCC1 (stereo unspecified)	0.0748 (inactive)
CON=C(C)CCN1CCCCc2nc(C)c(C)cc21	0.269 (inactive)
CC(C)(C)N1C(=O)[C@H]2[C@H]3[C@H](O)[C@H](O)CC(=NNC(=O)OCc4ccccc4)[C@H]3CC[C@H]2C1=O	-1.13 (inactive)
O=C1[C@H]2[C@H]3[C@H](O)[C@H](O)CC(=NO[C@@H]4O[C@H](CO)[C@@H](O)[C@H](O)[C@H]4O)[C@@H]3CC[C@H]2C(=O)N1C[C@@H]1CCCO1	-2.39 (inactive)
COC(=O)CC=C[C@@H](C)[C@@H](C=NOC[C@@H](O)COCc1ccco1)NS(=O)(=O)c1ccc(C)cc1	0.391 (inactive)

Now turn to the next molecule.
z-score lookup needed for CO[C@@H](C(C)C)[C@@H](C)C1OC(=O)CC1O (stereo partly specified) , thanks.
-0.121 (inactive)

----------
experimental.system: Alpha-bungarotoxin (Bungarus multicinctus)
measurement.protocol: alpha-bungarotoxin binders on microarray, profiling panel, artefact control for SMM control protein annotation, biochemical, small-molecule microarray, Alexa647 label, 635/667 nm fluorescence (AID 1117)
conditions: alpha-BTX-A647 binding fluorescence, higher = more signal
Label satisfied when composite z-score is at or above 0.7; otherwise label not satisfied.

// below: answered compounds
COc1ccc(O[C@H]2C=C[C@@H](c3ccccc3)O[C@@H]2CO)cc1 not satisfied
COc1ccc(O[C@H]2C=C[C@@H](c3ccccc3)O[C@@H]2CON=C(C)CCN2CCCc3nc(C)c(C)cc32)cc1 not satisfied

Answer whether composite z-score of CON=C(C)CCN1CCc2nc(-c3ccccc3)c(-c3ccccc3)cc2C1 is greater than or equal to 0.7.
not satisfied

----------
measurement.protocol: basal MM1S mitochondrial membrane potential changes, profiling panel, cell-based, JC-1 fluorescence, 24 h, 100 nL compound (AID 1170)
conditions: higher = more signal
Quick reference: z-score of the listed items.
Reply with the value as a number alone.

Bench note: what z-score did O=C1[C@H]2[C@H]3[C@H](O)[C@H](O)CC(=NOCc4ccccc4)[C@@H]3CC[C@H]2C(=O)N1c1cccc(Oc2ccccc2)c1 show?
-1.68

Another: CC(C)[C@@H](OCc1ccccc1)[C@H](C)C=NO[C@@H](C)c1cn([C@H](CO)Cc2ccccc2)nn1
-0.318

Please do the same for CCOC(=O)[C@H](CC(C)C)NC(=O)CCC1CC(OC(=O)NCCc2ccc(F)cc2)CC2(CCCC(COC(=O)NCc3cccc(C(F)(F)F)c3)O2)O1 (some centres not stated) as well.
-0.0831

Here is the next molecule: CO[C@H]1COC(=O)[C@H](CCSC)NC(=O)CC=C[C@@H](C)[C@H](OC)COC(=O)[C@@H](OCc2ccccc2)C=C[C@@H]1C
-0.491

Same again, this time with CCN(CC)CC(O)CN1CCCCc2nc(C)c(C)cc21 (configuration not stated)
-0.989

Follow-up entry: C[C@@H](c1ccccc1)N1C(=O)[C@H]2[C@H]3[C@H](O)[C@H](O)CC(=NNC(=O)OCc4ccccc4)[C@@H]3CC[C@H]2C1=O
-0.998

Record: CCOC(=O)[C@H](Cc1ccccc1)NC(=O)CCC1CC(OC(=O)NCc2ccc3c(c2)OCO3)CC2(CCCC(COC(=O)NCCOc3ccccc3)O2)O1 (some centres not stated)
-1.17
